# testedOn: Dual specificity protein kinase CLK2 (Homo sapiens) (UniProt P49760)
# Sequence (P49760 whole entry, looked up): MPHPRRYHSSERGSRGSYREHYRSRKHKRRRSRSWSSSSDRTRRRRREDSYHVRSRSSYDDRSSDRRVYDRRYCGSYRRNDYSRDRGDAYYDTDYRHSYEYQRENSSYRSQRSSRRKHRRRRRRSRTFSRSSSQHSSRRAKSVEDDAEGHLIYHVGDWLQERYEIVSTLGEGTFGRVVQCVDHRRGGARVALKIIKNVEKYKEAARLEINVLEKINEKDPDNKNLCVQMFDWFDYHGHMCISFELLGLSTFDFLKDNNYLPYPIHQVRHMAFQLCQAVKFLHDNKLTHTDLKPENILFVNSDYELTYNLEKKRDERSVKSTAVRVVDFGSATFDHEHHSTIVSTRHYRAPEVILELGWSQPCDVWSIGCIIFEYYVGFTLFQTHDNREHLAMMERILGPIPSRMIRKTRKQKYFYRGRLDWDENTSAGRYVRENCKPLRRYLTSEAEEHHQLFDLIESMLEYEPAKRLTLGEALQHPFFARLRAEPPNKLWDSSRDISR
# assayContext: at 0.1 µM
# Description: GSK_PKIS: CLK2 mean inhibition at 0.1 uM [Nanosyn]
Reported values of inhibition for individual entries
Your answer is read as %, so omit the unit and give the number.

Fc1ccc(-c2c(-c3ccncc3)nc3n2CCS3)cc1 ... 0.14
O=C(NCC1CC1)c1ccc(-c2cccc(C(=O)NC3CC3)c2)cc1 ... -0.19
COC(=O)Nc1nc2ccc(Sc3ccc(NC(=O)Nc4cc(C(F)(F)F)ccc4F)cc3)cc2[nH]1 ... 1.38
O=C(Nc1n[nH]c2cc(-c3cc(F)ccc3F)ccc12)C1CC1 ... -0.48

Now look at this entry.
May I ask what inhibition has been recorded for N#Cc1ccc(Oc2nccc(-c3c(-c4ccc(F)cc4)ncn3C3CCNCC3)n2)cc1 ? 1

---

# testedOn: Insulin receptor-related protein (Homo sapiens) (UniProt P14616)
# Sequence (P14616 27-742 limits assumed): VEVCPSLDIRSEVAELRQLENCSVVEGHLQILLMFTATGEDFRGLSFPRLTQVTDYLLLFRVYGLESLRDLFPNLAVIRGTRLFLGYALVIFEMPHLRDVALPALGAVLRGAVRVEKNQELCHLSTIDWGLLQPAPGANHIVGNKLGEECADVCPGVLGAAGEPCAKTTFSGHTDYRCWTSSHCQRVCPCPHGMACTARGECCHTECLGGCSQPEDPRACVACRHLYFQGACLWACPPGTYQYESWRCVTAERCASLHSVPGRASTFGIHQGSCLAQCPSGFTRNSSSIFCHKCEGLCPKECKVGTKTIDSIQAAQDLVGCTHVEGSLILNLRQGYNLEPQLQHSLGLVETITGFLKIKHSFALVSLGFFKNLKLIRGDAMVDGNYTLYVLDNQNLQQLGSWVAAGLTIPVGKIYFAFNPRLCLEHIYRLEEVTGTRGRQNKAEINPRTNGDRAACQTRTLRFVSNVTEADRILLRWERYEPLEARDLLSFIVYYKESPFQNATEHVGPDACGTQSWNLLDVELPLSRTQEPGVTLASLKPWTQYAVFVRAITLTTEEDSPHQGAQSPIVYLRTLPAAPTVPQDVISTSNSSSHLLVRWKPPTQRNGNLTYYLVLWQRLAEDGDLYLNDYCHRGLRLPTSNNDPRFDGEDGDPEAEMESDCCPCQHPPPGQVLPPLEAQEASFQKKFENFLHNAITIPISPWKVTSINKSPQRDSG
# Sequence (P14616 747-1297 limits assumed): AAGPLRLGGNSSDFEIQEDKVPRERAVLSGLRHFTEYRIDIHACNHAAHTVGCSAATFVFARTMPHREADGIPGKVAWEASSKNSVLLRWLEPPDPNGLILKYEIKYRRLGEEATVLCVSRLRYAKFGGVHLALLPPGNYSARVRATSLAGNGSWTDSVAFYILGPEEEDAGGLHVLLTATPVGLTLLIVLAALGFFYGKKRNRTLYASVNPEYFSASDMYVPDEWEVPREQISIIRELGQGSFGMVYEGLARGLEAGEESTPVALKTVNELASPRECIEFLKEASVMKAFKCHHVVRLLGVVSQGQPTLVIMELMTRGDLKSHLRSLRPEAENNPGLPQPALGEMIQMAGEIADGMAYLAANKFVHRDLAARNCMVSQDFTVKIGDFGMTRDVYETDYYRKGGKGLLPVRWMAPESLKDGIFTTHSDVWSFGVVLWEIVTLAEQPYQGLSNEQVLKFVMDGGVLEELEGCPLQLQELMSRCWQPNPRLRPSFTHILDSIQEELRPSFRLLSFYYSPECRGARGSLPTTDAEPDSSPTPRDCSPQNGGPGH
# assayContext: at 1 µM
quantityName: inhibition (%)
Note: unit % is implicit; provide only the numeric part.

Please review the following examples before continuing.
NCc1ccc(-n2c(-c3nonc3N)nc3cnccc32)cc1 ... 2.5
NC(=O)c1cc(-c2ccncc2)cc(-c2ccccc2)c1N ... 1.56
COc1cc(Nc2ncc3c(C)nc(-c4cccc(C(F)(F)F)c4)n3n2)cc(OC)c1OC ... 3.39
Fc1ccc(-c2ncn(C3CCNCC3)c2-c2ccnc(Oc3ccc(F)c(F)c3)n2)cc1 ... 2.75
CNC(=O)c1cncc(/C=C/c2c(C)cccc2C)c1 ... 1.08
COc1cc2ncn(-c3cc(OCc4ccccc4C(F)(F)F)c(C(C)=O)s3)c2cc1OC ... 3.18

# query: inhibition | item CN1CCN(CCCNc2nc3ccc(Oc4ccc(NC(=O)Nc5cc(C(F)(F)F)ccc5F)cc4)cc3[nH]2)CC1 | system: Insulin receptor-related protein (Homo sapiens) (UniProt P14616) 0.55

c1ccc(Oc2ccc(Nc3ncc(-c4ccccc4)o3)cc2)cc1 ? 1.99

Quick one: NS(=O)(=O)c1ccc(N/N=C2\C(=O)Nc3ccc(-c4cnco4)cc32)cc1 0.6

Then what about the molecule CCc1cccc(CC)c1/C=C/c1cncc(C(=O)NC)c1 ? 2.06

---

# testedOn: SRSF protein kinase 3 (Homo sapiens) (UniProt Q9UPE1)
# Sequence (Q9UPE1 whole entry): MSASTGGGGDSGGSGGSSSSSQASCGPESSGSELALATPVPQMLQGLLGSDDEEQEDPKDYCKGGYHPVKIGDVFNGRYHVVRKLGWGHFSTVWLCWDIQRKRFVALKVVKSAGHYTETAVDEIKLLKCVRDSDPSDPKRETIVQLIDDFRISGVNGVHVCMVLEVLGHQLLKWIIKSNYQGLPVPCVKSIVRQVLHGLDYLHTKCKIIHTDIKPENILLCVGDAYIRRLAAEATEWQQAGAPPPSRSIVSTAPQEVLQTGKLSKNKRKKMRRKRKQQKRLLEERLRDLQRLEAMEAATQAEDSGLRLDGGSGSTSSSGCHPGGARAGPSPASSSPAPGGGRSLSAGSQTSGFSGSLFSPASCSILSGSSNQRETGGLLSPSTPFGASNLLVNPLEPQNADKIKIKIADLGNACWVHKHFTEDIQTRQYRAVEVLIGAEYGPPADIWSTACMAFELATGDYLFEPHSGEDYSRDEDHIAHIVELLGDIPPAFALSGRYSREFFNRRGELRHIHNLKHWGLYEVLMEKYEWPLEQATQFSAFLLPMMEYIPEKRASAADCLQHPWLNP
# assayContext: at 1 µM
inhibition values, listed per item
Dear colleague, please return just the value in %, with no unit written.

COc1cc(Nc2ncc3c(C)nc(-c4cccc(C(F)(F)F)c4)n3n2)cc(OC)c1OC ... 3.15
Fc1ccc(-c2nc3n(c2-c2ccncc2)CCS3)cc1 ... -0.89

Shifting focus to the compound that follows.
Record CCS(=O)(=O)c1ccc(OC)c(Nc2ncc(-c3ccccc3Cl)o2)c1 : what is its inhibition with SRSF protein kinase 3 (Homo sapiens) (UniProt Q9UPE1)? 3.28

---

As shown below, each of these compounds has a reported inhibition value.
# testedOn: Casein kinase I isoform gamma-1 (Homo sapiens) (UniProt Q9HCP0)
# Sequence (Q9HCP0 whole entry, looked up, canonical isoform): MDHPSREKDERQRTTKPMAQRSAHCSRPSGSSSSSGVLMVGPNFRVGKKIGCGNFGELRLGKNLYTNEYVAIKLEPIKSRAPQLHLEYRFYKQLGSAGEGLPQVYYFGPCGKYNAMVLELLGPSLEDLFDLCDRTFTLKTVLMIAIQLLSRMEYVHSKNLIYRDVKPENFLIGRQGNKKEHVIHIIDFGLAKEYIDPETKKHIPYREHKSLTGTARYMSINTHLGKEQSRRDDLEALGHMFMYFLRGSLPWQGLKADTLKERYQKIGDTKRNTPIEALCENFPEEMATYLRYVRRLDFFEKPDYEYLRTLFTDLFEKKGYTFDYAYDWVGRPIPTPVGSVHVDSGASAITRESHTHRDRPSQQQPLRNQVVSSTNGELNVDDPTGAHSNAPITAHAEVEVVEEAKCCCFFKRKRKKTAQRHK
# assayContext: at 1 µM
Answers without a unit are incomplete; give the number and then its unit.

The cases that follow already have their inhibition on record.
C#Cc1cccc(Nc2ncnc3ccc(OCCCCNCCS(C)(=O)=O)cc23)c1 ... 1.77%
CCc1nccc2c1nc(-c1nonc1N)n2CC ... 2.98%
O=C1NC(=O)C(c2cccc(Cl)c2)=C1Nc1ccc(Cl)c(C(=O)O)c1 ... 1.79%
Fc1ccc(-c2ncn(CCCN3CCOCC3)c2-c2ccncc2)cc1 ... 1.79%
COc1cc(C)c(N(C)C(=O)CN(C)C)cc1Nc1nc(Nc2cccc(F)c2C(N)=O)c2cc[nH]c2n1 ... 11.3%
O=C1Nc2ccc(I)cc2C1=Cc1cc(Br)c(O)c(Br)c1 ... 5.38%
COc1cccc(/C=N/Nc2ncnc3c2cnn3-c2cccc(OC)c2)c1 ... 3.51%
CCS(=O)(=O)c1ccc(OC)c(Nc2ncc(-c3cccc(-c4ccccc4F)c3)o2)c1 ... 0.08%
O=C1Nc2ccccc2/C1=C/Nc1ccc(-n2cncn2)cc1 ... 7.11%

Then there is this compound:
Quick check: inhibition of COc1ccc(C2=C(N3CCc4ccccc43)C(=O)NC2=O)cc1 ? 4.09%
